# assay.explanation: xn = mol fraction of the nth substance listed, in the solute-free solvent
# measurement.context: 308.15 K; x2 = 0.8
The label depends only on solubility (g/100 g solution): criterion met if it is at least 5, criterion not met if it is smaller.

Consider the following illustrative entries.
Exam item: Does the reported solubility (g/100 g solution) for COC1=CC(=O)CC(C)C12Oc1c(Cl)c(OC)cc(OC)c1C2=O (configuration not stated) + CC(=O)CC(C)C + CC(C)O fall at or above the 5 mark?
Marked response: criterion not met

Exam item: Assess whether reported solubility (g/100 g solution) for CCCCOc1ccc(C(=O)CCN2CCCCC2)cc1.Cl + CCO + CCCCCC sits at 5 or higher.
Marked response: criterion met

Exam item: hey, is solubility (g/100 g solution) for this one >= 5? COC1=CC(=O)CC(C)C12Oc1c(Cl)c(OC)cc(OC)c1C2=O (configuration not stated) + CC(C)=O + CC(C)O
Marked response: criterion not met

Exam item: I'd appreciate it if you could say whether CCCCOc1ccc(C(=O)CCN2CCCCC2)cc1.Cl + CO + C1CCOC1 has solubility (g/100 g solution) at least equal to 5.
Marked response: criterion met

Exam item: hey, is solubility (g/100 g solution) for this one >= 5? COC1=CC(=O)CC(C)C12Oc1c(Cl)c(OC)cc(OC)c1C2=O (configuration not stated) + CCC(C)=O + CC(C)O
Marked response: criterion not met

Next item in the queue.
Exam item: I'd appreciate it if you could say whether CCCCOc1ccc(C(=O)CCN2CCCCC2)cc1.Cl + CCO + O has solubility (g/100 g solution) at least equal to 5.
Marked response: criterion met

---

# assay.explanation: xn = mol fraction of the nth substance listed, in the solute-free solvent
# measurement.context: 323.15 K; x2 = 0.1
Label 1 when solubility (g/100 g solution) >= 2; otherwise -1.

Solved entries (count: 8):
Exam item: Evaluate O=C(O)C1CSCN1 (configuration not stated) + O + CC#N : solubility (g/100 g solution) at minimum 2?
Marked response: -1

Exam item: Identify whether the reported solubility (g/100 g solution) of the following compound is 2 or greater: COC1=CC(=O)CC(C)C12Oc1c(Cl)c(OC)cc(OC)c1C2=O (configuration not stated) + CC(C)=O + CC(C)O
Marked response: -1

Exam item: solubility (g/100 g solution) >= 2 for O=C(O)c1ccc(C(=O)O)o1 + O + COCCOCCOC ?
Marked response: -1

Exam item: Could you verify whether the entry COC1=CC(=O)CC(C)C12Oc1c(Cl)c(OC)cc(OC)c1C2=O (configuration not stated) + CC(=O)CC(C)C + CC(C)O shows solubility (g/100 g solution) of no less than 2?
Marked response: -1

Exam item: Form field: solubility (g/100 g solution) at least 2? Entry: O=C(O)c1ccc(C(=O)O)o1 + C1CCOC1 + O
Marked response: 1

Exam item: Does solubility (g/100 g solution) meet or surpass 2 for O=C(O)c1ccc(C(=O)O)o1 + C1COCCO1 + O ?
Marked response: 1

Exam item: Does CCCCOc1ccc(C(=O)CCN2CCCCC2)cc1.Cl + CO + C1CCOC1 have a reported solubility (g/100 g solution) of at least 2?
Marked response: 1

Exam item: # bool: solubility (g/100 g solution) of CCCCOc1ccc(C(=O)CCN2CCCCC2)cc1.Cl + CCO + O >= 2
Marked response: 1

Next:
Exam item: Threshold query (solubility (g/100 g solution) >= 2) on O=C(O)c1ccc(C(=O)O)o1 + O + COCCOC
Marked response: -1

Exam item: Form field: solubility (g/100 g solution) at least 2? Entry: COC1=CC(=O)CC(C)C12Oc1c(Cl)c(OC)cc(OC)c1C2=O (configuration not stated) + CCC(C)=O + CC(C)O
Marked response: -1

Exam item: Dear colleague, could you confirm whether CCCCOc1ccc(C(=O)CCN2CCCCC2)cc1.Cl + CCO + CCCCCC has solubility (g/100 g solution) at or above 2?
Marked response: 1

Exam item: Reported solubility (g/100 g solution) at or above 2? CCCCOc1ccc(C(=O)CCN2CCCCC2)cc1.Cl + CCO + CCOC(C)=O
Marked response: 1
